Cited source: paper PMC11502128

Target: porcine PNLIP (pancreatic lipase) (Sus scrofa)
Sequence (P00591 1-450): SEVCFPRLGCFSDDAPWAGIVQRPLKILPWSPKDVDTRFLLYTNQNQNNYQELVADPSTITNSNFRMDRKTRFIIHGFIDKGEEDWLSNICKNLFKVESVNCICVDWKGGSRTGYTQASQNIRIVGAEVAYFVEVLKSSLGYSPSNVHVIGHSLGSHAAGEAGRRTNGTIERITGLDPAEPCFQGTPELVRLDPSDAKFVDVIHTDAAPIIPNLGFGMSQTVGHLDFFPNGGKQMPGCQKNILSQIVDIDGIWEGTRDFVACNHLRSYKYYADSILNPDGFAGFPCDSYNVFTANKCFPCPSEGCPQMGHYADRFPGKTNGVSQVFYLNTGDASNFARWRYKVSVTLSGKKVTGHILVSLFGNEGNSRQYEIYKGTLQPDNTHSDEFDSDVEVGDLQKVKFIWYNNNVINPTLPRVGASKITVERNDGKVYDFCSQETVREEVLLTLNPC
Assay: PNLIP inhibition and enzyme kinetics with p-nitrophenyl palmitate
Type: biochemical
Settings: Lineweaver–Burk, substrate 2–10 mM; mean ± SEM (n = 3); read-out: Pancreatic lipase Ki
experimental-endpoint: pKi
Just the number, please; pKi means minus log10 of the concentration in mol/L.

// query Name the recorded pKi for C/C(=C/CC[C@H](C(=O)O)C1CC[C@]2(C)C3=CCC4C(C)(C)[C@H](O)CC[C@]4(C)C3CC[C@@]12C)CO (stereo partly shown) .
// result 4.28

* * *

Molecular target: UniProtKB P00591
Assay: PNLIP inhibition and enzyme kinetics with p-nitrophenyl palmitate
Type: biochemical
experimental-endpoint: pKi
Just the number, please; pKi means minus log10 of the concentration in mol/L.

// query # value lookup — system UniProtKB P00591, readout pKi, item CC(C)=CCCC(C(=O)O)C1CCC2(C)C3CCC4C(C)(CCC(O)C4(C)C)C3=CCC12C (stereo not drawn) [RA-5, 3β-hydroxylanosta-9,24-dien-21-oic acid]
// result 4.54

* * *

Molecular target: UniProtKB P00591
Experiment: PNLIP inhibition and enzyme kinetics with p-nitrophenyl palmitate
Assay type: biochemical
experimental-endpoint: pIC50
Just the number, please; pIC50 means minus log10 of the concentration in mol/L.

// query # value lookup — system UniProtKB P00591, readout pIC50, item CC(C)=CCCC(C(=O)O)C1CCC2(C)C3CCC4C(C)(CCC(O)C4(C)C)C3=CCC12C (stereo not drawn) [RA-5, 3β-hydroxylanosta-9,24-dien-21-oic acid]
// result 4.56

* * *

Target: porcine PNLIP (pancreatic lipase) (Sus scrofa, UniProt P00591)
Sequence (P00591 1-450): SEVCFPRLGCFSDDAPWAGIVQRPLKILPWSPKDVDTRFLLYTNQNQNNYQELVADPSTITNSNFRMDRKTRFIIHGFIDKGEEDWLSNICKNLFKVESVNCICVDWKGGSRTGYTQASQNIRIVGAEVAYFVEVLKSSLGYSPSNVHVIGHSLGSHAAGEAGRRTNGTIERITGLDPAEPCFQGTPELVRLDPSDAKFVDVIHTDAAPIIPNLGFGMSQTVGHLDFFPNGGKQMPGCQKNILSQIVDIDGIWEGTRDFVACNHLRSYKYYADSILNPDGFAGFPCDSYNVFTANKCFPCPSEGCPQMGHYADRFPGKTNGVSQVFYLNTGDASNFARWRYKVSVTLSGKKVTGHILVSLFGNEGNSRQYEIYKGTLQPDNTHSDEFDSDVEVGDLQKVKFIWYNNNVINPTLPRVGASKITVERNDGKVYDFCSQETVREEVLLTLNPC
Assay: PNLIP inhibition and enzyme kinetics with p-nitrophenyl palmitate
Assay type: biochemical
Conditions: porcine PNLIP, p-NPP substrate, pH 7.4, 37°C; mean ± SEM (n = 3); read-out: Pancreatic lipase IC50
experimental-endpoint: IC50 (µM)
Value expressed in µM; do not type the unit.

// query Name the recorded IC50 for C/C(=C/CC[C@H](C(=O)O)C1CC[C@]2(C)C3=CCC4C(C)(C)[C@H](O)CC[C@]4(C)C3CC[C@@]12C)CO (stereo partly shown) [ARM-2] .
// result 35.8
